ASSAY COMMENT: Pharmacokinetics in beagle dogs
Type: in vivo
CONDITION PARAMETERS: both sexes, beagle, dog, plasma
READOUT TYPE: half-life (h)
Quick reminder: number only, in h, skip the unit.

[in] Name the recorded half-life for C[S@@](=N)(=O)c1ccc(C(=O)Nc2cc(-c3ccc(F)cc3)ccc2N)cc1 [Compound I] .
[out] 8.4

###

Tested on: CYP3A4/5
ASSAY COMMENT: Metabolism by recombinant human CYP3A4/5
Format: in vitro ADME
CONDITION PARAMETERS: read-out: terminal half life (T1/2), rh CYP3A4/5
READOUT TYPE: half-life

[in] For CYP3A4/5, provide half-life of `C[S@@](=N)(=O)c1ccc(C(=O)Nc2cc(-c3ccc(F)cc3)ccc2N)cc1` please.
[out] > 1 h

###

TARGET OF ASSAY: hERG potassium channel (Homo sapiens, UniProt Q12809)
Construct: expressed in transfected cells
Sequence (Q12809 whole entry): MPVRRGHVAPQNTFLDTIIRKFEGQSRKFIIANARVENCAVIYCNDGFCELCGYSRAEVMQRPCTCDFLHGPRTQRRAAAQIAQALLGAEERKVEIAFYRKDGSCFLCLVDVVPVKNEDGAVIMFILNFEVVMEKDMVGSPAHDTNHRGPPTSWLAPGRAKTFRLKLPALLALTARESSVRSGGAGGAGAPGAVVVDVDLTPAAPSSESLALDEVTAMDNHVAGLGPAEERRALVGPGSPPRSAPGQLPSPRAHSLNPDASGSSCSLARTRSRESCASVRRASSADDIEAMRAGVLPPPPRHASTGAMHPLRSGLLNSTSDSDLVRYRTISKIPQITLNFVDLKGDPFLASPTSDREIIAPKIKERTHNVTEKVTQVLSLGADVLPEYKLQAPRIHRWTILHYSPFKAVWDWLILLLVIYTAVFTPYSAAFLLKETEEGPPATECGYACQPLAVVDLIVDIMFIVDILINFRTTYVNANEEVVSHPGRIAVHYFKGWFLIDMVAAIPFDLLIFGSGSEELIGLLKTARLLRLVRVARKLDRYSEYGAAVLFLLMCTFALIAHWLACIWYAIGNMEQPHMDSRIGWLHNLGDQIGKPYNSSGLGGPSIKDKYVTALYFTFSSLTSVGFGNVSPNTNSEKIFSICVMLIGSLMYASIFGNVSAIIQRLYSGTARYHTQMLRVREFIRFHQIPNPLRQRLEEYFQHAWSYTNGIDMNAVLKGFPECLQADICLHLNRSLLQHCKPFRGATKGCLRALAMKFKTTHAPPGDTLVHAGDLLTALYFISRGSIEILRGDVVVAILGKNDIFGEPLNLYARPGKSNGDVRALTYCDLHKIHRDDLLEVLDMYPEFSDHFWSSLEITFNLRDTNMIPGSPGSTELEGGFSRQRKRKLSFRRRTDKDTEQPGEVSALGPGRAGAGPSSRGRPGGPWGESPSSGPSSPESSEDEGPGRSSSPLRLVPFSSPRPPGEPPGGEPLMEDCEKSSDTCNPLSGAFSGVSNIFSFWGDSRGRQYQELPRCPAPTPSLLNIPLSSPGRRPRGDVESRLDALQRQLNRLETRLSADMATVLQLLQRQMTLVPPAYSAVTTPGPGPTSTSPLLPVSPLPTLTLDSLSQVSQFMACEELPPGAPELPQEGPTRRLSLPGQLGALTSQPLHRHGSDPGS
ASSAY COMMENT: hERG manual patch-clamp in HEK 293 cells
Format: cell-based
CONDITION PARAMETERS: human, HEK 293 cells stably expressing hERG; 3 uM; dose range-finding assay; read-out: inhibition of hERG currents
READOUT TYPE: inhibition at 3 µM (%)
Respond numerically; units are % and should not be typed.

[in] Could you share which inhibition at 3 µM value was measured for C[S@@](=N)(=O)c1ccc(C(=O)Nc2cc(-c3ccc(F)cc3)ccc2N)cc1 [Compound I] ?
[out] 15.7

###

TARGET OF ASSAY: CYP2C19 (Homo sapiens)
Sequence (P33261 whole entry): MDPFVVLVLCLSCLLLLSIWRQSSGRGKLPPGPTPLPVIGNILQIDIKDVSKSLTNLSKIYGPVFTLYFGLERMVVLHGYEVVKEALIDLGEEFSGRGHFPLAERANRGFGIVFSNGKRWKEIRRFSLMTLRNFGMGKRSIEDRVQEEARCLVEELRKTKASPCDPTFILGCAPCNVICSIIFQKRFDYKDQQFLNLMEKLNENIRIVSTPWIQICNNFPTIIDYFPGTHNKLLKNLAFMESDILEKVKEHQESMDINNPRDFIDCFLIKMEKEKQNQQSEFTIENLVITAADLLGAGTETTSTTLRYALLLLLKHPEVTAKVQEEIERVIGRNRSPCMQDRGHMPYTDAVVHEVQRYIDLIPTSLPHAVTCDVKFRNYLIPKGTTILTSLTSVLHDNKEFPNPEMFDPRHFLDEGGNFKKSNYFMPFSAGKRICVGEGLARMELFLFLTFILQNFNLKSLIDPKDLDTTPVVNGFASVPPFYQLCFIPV
ASSAY COMMENT: Metabolism by recombinant human CYP2C19
Type: in vitro ADME
CONDITION PARAMETERS: read-out: terminal half life (T1/2), rh CYP2C19
READOUT TYPE: half-life

[in] What value of measured half-life is listed for C[S@@](=N)(=O)c1ccc(C(=O)Nc2cc(-c3ccc(F)cc3)ccc2N)cc1 [Compound I] ?
[out] > 60 min

###

ASSAY COMMENT: Solubility in hERG assay medium
Type: physicochemical
CONDITION PARAMETERS: aqueous buffer, kinetic from dmso stock, 0.3% DMSO, pH 6.9
READOUT TYPE: solubility

[in] Return reported solubility; argument: C[S@@](=N)(=O)c1ccc(C(=O)Nc2cc(-c3ccc(F)cc3)ccc2N)cc1 [Compound I]
[out] ≥ 100 µM

###

TARGET OF ASSAY: hERG potassium channel (Homo sapiens, UniProt Q12809)
Construct: expressed in transfected cells
ASSAY COMMENT: hERG manual patch-clamp in HEK 293 cells
Format: cell-based
CONDITION PARAMETERS: Table 5; read-out: hERG IC50
pIC50: −log10 of the molar value.
READOUT TYPE: pIC50

[in] Would you mind telling me what pIC50 value was observed for `C[S@@](=N)(=O)c1ccc(C(=O)Nc2cc(-c3ccc(F)cc3)ccc2N)cc1` ?
[out] < 4.52

###

ASSAY COMMENT: Pharmacokinetics in rats
Type: in vivo, Sprague Dawley rats
CONDITION PARAMETERS: male, Sprague Dawley, rat, plasma, intravenous, 1 mg/kg; read-out: CL, p
READOUT TYPE: clearance

[in] Value lookup for clearance; key = `C[S@@](=N)(=O)c1ccc(C(=O)Nc2cc(-c3ccc(F)cc3)ccc2N)cc1`
[out] 7.7 mL/min/kg

###

ASSAY COMMENT: Pharmacokinetics in rats
Type: in vivo, Sprague Dawley rats
CONDITION PARAMETERS: male, Sprague Dawley, rat, plasma
Procedure: The pharmacokinetics (PK) of Compound I in rats was determined following single IV bolus of 1 mg/kg in 20% wt/vol HPβCD, 1% vol/vol DMSO in saline or single PO dose of 3 mg/kg in 0.5% methylcellulose (MC) in water to male Sprague Dawley rats (fed for IV, fasted for PO). Plasma samples were collected from 3 animals/group at 0.05, 0.25, 0.5, 1, 2, 3, 4 8, and 24 hours after dosing.
READOUT TYPE: half-life (h)
Only the number, expressed in h, is required.

[in] Fill in: half-life of `C[S@@](=N)(=O)c1ccc(C(=O)Nc2cc(-c3ccc(F)cc3)ccc2N)cc1` is ___
[out] 4.8

###

TARGET OF ASSAY: HDAC6 (Homo sapiens, UniProt Q9UBN7)
Sequence (Q9UBN7 whole entry): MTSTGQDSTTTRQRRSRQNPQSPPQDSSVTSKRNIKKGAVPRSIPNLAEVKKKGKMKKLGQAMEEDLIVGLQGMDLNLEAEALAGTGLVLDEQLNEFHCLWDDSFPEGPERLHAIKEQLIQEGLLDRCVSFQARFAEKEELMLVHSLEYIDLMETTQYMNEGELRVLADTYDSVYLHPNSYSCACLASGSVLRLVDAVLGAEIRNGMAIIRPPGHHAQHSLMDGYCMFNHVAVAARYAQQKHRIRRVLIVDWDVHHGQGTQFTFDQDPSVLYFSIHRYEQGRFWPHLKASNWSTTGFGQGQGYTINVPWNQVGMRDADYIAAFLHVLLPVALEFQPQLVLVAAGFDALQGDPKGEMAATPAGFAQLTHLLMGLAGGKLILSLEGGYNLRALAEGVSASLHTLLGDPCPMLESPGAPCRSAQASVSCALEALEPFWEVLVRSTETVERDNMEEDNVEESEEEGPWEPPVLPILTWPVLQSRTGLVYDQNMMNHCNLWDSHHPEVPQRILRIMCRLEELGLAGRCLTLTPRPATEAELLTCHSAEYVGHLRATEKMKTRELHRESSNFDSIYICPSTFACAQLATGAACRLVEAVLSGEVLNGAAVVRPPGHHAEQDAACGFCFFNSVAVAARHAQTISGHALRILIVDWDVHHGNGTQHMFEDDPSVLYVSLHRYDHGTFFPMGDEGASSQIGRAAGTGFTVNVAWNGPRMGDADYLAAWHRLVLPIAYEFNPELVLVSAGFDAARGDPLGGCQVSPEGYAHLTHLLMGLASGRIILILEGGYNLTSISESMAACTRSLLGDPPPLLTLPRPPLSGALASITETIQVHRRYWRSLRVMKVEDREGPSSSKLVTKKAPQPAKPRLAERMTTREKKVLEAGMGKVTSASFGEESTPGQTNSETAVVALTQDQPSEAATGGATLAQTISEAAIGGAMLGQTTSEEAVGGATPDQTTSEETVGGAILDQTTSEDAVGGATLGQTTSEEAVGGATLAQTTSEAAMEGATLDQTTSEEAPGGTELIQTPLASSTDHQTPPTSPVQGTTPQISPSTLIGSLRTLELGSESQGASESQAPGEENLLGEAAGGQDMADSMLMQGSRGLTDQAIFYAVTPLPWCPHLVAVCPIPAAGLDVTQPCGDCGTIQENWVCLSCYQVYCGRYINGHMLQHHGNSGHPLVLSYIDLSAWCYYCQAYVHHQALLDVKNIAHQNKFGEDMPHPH
ASSAY COMMENT: Cellular NanoBRET assay, HDAC6
pIC50: −log10 of the molar value.
READOUT TYPE: pIC50

[in] Would you kindly share the measured pIC50 for `C[S@@](=N)(=O)c1ccc(C(=O)Nc2cc(-c3ccc(F)cc3)ccc2N)cc1` ?
[out] < 4.52

Source of measurements: patent US20260041653A1
